- System under test: triosephosphate isomerase (TbbTIM) (Trypanosoma brucei, UniProt P04789, I172A/L232A)
- Assay: X-ray crystal structure
- Type: biochemical
Reported property: Ki (µM)
Answers are plain numbers, in µM.

Give Ki (triosephosphate isomerase (TbbTIM) (Trypanosoma brucei, UniProt P04789, I172A/L232A)) of the following compound: O=C(O)COP(=O)(O)O [PGA, 2-phosphoglycolate] 120

----------
- System under test: triosephosphate isomerase (TbbTIM) (Trypanosoma brucei, UniProt P04789, I172A/L232A)
- Assay: activation of [[…]-13C]-glycolaldehyde turnover followed by 1H NMR, fit to give Kd
Reported property: Kd (mM)
Answers are plain numbers, in mM.

Give Kd (triosephosphate isomerase (TbbTIM) (Trypanosoma brucei, UniProt P04789, I172A/L232A)) of the following compound: O=[PH](O)O 5.9

Where these numbers come from: paper PMC4934371
